B1: Twister Ribozyme (parent)
chain: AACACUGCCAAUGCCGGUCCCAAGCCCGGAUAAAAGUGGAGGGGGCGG

Variants of: B1
Test: self-cleavage, relative activity (ratio to wild type); higher = more cleavage; co-transcriptional
Binary call on self-cleavage: criterion met from 0.2 upward, criterion not met beneath that.

biopolymer_sequence	class_label
AACACUGCCAAUGCCGGUCCCAUGCCCGGAUAAAAGUGGAGGGGGGGG [A23U C46G]	criterion met
AACACUGCCAAUGCCGGUCCAAAGCCCGGAUAACAGUGGAGGGGGCGG [C21A A34C]	criterion not met
AACACUGCCAAUGCCGGUCUCAAGCCCGGAUAAAAGUGGAGGGGGCGA [C20U G48A]	criterion met

input: Does self-cleavage meet or surpass 0.2 for AACACUGCCAAUGCCGGCCCCAAGCCCGGAAAAAAGUGGAGGGGGCGG [U18C U31A] ?
output: criterion met

input: Does self-cleavage meet or surpass 0.2 for AACACUGCCAAUGCCGCUCCCAAGCCCGGAUAAAAGGGGAGGGGGCGG [G17C U37G] ?
output: criterion not met

input: Does self-cleavage meet or surpass 0.2 for AACACUGCCAAUGCCGGUCCCAAGCCCGGUUAAAAGUGCAGGGGGCGG [A30U G39C] ?
output: criterion not met

input: Does self-cleavage meet or surpass 0.2 for AACACUGCCAAUGCCGGUCCCUAGCCCGGAGAAAAGUGGAGGGGGCGG [A22U U31G] ?
output: criterion met

input: Does self-cleavage meet or surpass 0.2 for AAAACUGCCAAUGCCGGUCCCAAGCCCGGAUAAAUGUGGAGGGGGCGG [C3A A35U] ?
output: criterion not met

input: Does self-cleavage meet or surpass 0.2 for AACACUGCCAAUGCCGUUCCCAAGCCCGGAUAAAAGCGGAGGGGGCGG [G17U U37C] ?
output: criterion not met

input: Does self-cleavage meet or surpass 0.2 for AACACUCCCAAUGCCGGUCCCAAGCCCGGAGAAAAGUGGAGGGGGCGG [G7C U31G] ?
output: criterion not met

input: Does self-cleavage meet or surpass 0.2 for AACACUGCCAGUGCCGGUCCCAAGCCCGGAGAAAAGUGGAGGGGGCGG [A11G U31G] ?
output: criterion met

input: Does self-cleavage meet or surpass 0.2 for AACACUGCCAAUGCAGGUCUCAAGCCCGGAUAAAAGUGGAGGGGGCGG [C15A C20U] ?
output: criterion met

input: Does self-cleavage meet or surpass 0.2 for AACACUGCCAAAGCCGGUCCCAAGCCUGGAUAAAAGUGGAGGGGGCGG [U12A C27U] ?
output: criterion met

input: Does self-cleavage meet or surpass 0.2 for AACACUGCCAGUGCCGGUCCCAAGCCCGGAUAAAAGUGGAGGGCGCGG [A11G G44C] ?
output: criterion met

input: Does self-cleavage meet or surpass 0.2 for AACACUGCCAACGCCGGUCCCAAGCCCGGAUAAAAAUGGAGGGGGCGG [U12C G36A] ?
output: criterion met

input: Does self-cleavage meet or surpass 0.2 for AACACUGCCAGUGCCGGUCCCUAGCCCGGAUAAAAGUGGAGGGGGCGG [A11G A22U] ?
output: criterion met

input: Does self-cleavage meet or surpass 0.2 for AACACUGACAAUGCCGGUCCCAAGCCCGGAUAAUAGUGGAGGGGGCGG [C8A A34U] ?
output: criterion met

input: Does self-cleavage meet or surpass 0.2 for AACACUUCCAAUGCCGGUCCCAAGCCCGGAUAAAAGUGGAGCGGGCGG [G7U G42C] ?
output: criterion not met

input: Does self-cleavage meet or surpass 0.2 for AACACUGCCAAUGCCGGUCCCAAGCACGGAUAAAAGUAGAGGGGGCGG [C26A G38A] ?
output: criterion not met

input: Does self-cleavage meet or surpass 0.2 for AACACUGCCAAUGCCGGACCCAAGCCCGCAUAAAAGUGGAGGGGGCGG [U18A G29C] ?
output: criterion not met

input: Does self-cleavage meet or surpass 0.2 for AACACUGCCAAUGCCGGUCCCAAGCCAGGAUAAAAGUGGAGGGGGAGG [C27A C46A] ?
output: criterion met
